assay_target: Hop TPR2A-Hsp90 MEEVD interaction (Homo sapiens)
Construct: The TPR2A domain of human Hop, residues 218-350, was cloned from full-length Hop cDNA; made in house; host or cells: Escherichia coli BL21 (DE3) pLysS
Sequence (P31948 218-350): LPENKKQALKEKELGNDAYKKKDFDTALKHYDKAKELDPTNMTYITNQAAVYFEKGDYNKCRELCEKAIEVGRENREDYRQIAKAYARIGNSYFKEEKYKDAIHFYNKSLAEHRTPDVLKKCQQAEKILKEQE
experiment_description: LANCE (TR-FRET) proximity assay of Hop TPR2A binding to biotin-Hsp90 MEEVD peptide
property_name: IC50

Which IC50 value belongs to O=C(O)CCC(=O)O [Compound 1, succinic acid] ?
~4 mM

---

assay_target: Hop TPR2A-Hsp90 MEEVD interaction (Homo sapiens)
Construct: The TPR2A domain of human Hop, residues 218-350, was cloned from full-length Hop cDNA; made in house; host or cells: Escherichia coli BL21 (DE3) pLysS
experiment_description: LANCE (TR-FRET) proximity assay of Hop TPR2A binding to biotin-Hsp90 MEEVD peptide
test_conditions: n = 3 independent experiments, duplicate wells, Mean ± S.D.
property_name: IC50 (µM)
# number only, unit µM dropped from output

Example results:
O=C(O)/C=C\C(=O)O : 2170
Cc1ccccc1C1c2[nH]c3ccccc3c2CC2C(=O)N(c3ccccc3C(=O)O)C(=O)N21 (stereo not drawn) : 94

Which IC50 value belongs to COc1cccc(C2c3[nH]c4ccccc4c3CC3C(=O)N(c4ccccc4C(=O)NCC(=O)O)C(=O)N32)c1 (stereo not drawn) ?
311

Which IC50 value belongs to Cc1ccc(C2c3[nH]c4ccccc4c3CC3C(=O)N(c4ccccc4C(=O)O)C(=O)N32)cc1 (stereo not drawn) ?
234

Which IC50 value belongs to "O=C(O)CCC(=O)O" ?
3960

Which IC50 value belongs to COc1cccc(C2c3[nH]c4ccccc4c3CC3C(=O)N(c4ccc(C(=O)O)cc4)C(=O)N32)c1 (stereo not drawn) ?
1180

Which IC50 value belongs to Cc1cccc(C2c3[nH]c4ccccc4c3CC3C(=O)N(c4ccccc4C(=O)O)C(=O)N32)c1 (stereo not drawn) ?
80

Which IC50 value belongs to O=C(O)c1ccccc1N1C(=O)C2Cc3c([nH]c4ccccc34)C(c3ccccc3)N2C1=O (stereo not drawn) ?
452

Which IC50 value belongs to COc1ccc(C2c3[nH]c4ccccc4c3CC3C(=O)N(c4ccccc4C(=O)NC(CC(=O)O)C(=O)O)C(=O)N32)cc1 (stereo not drawn) ?
74

FYI, the data here is from paper PMC7524759.
